# ASSAY_OVERVIEW: ATG_ISRE_CIS: Attagene CIS-FACTORIAL HepG2 Assay for human Interferon Regulatory Factor 1 (IRF1) binding to an Interferon-Stimulated Response Element (ISRE) (AID 2282948)
# CONDITIONS_USED: HepG2 ISRE cis-reporter (Attagene), mRNA transcription readout; actives raise or lower the signal
# Protocol: ATG_CIS is a cell-based, multiplexed-readout assay that uses HepG2, a human liver cell line, with measurements taken at 24 hours after chemical dosing in a 24-well plate.ATG_ISRE_CIS is one of 52 assay component(s) measured or calculated from the ATG_CIS assay. […] This assay endpoint, ATG_ISRE_CIS, was analyzed with bidirectional fitting relative to DMSO as the negative control and baseline of activity. […]
Activity calls are given as the source filed them. How the source made its calls: active means hit-call score of the fitted dose curve at least 0.9, where 1 is the maximum; inactive means score below 0.9.
Returns: one label drawn from 1 for active, -1 for inactive

INPUT: Please share the test call associated with CCCC(=O)OC(C)(C)Cc1ccccc1 .
OUTPUT: -1

INPUT: Recorded test outcome, item COc1ccc(N=Nc2cc(C)c(N=Nc3ccc(S(=O)(=O)O)cc3)cc2OC)cc1
OUTPUT: -1

INPUT: Which outcome did this test record for the compound CC(C)(CO)[C@@H](O)C(=O)NCCC(=O)O ?
OUTPUT: -1

###

# SUBJECT_OF_TEST: Oxysterols receptor LXR-alpha (Homo sapiens)
# ASSAY_OVERVIEW: ATG_LXRa_TRANS: Attagene TRANS-FACTORIAL HepG2 Assay for human Liver X Receptor alpha (LXRa) (AID 2282980)
# CONDITIONS_USED: HepG2 Attagene TRANS reporter, LXRa transactivation
Results filed as inconclusive are left out. Calls of active or inactive are those of the source. How the source made its calls: active means hit-call score of the fitted dose curve at least 0.9, where 1 is the maximum; inconclusive means response in the unintended direction; inactive means score below 0.9.
// allowed return values: active, inactive

INPUT: Identify the outcome logged in this assay for the compound shown: c1ccc2cc(Nc3ccc(Nc4ccc5ccccc5c4)cc3)ccc2c1
OUTPUT: inactive

INPUT: For CCOc1ccc(N=Nc2ccc(C=Cc3ccc(N=Nc4ccc(OCC)cc4)cc3S(=O)(=O)O)c(S(=O)(=O)O)c2)cc1 , which call appears in the assay record?
OUTPUT: inactive

INPUT: Recorded call for CC1=NN(c2ccc(S(=O)(=O)O)cc2)C(=O)C1 ?
OUTPUT: inactive

INPUT: Tell me the assay call for CCc1cc(Cc2cc(CC)cc(C(C)(C)C)c2O)c(O)c(C(C)(C)C)c1 please.
OUTPUT: inactive

INPUT: Please let me know the test result on file for COc1cc(Cl)c(OC)cc1N .
OUTPUT: inactive

INPUT: What did this assay record as the result for O=C1CCCC=CCCCCCCCCCC1 ?
OUTPUT: inactive

INPUT: Field: outcome | Entry: CN(C)CCOc1ccc(/C(=C(/CCCl)c2ccccc2)c2ccccc2)cc1
OUTPUT: inactive

INPUT: Short answer needed: outcome of this test for Cc1ccc(S(N)(=O)=O)cc1 ?
OUTPUT: inactive

###

# Read-out: Monocyte Chemoattractant Protein-1 (MCP1), CCL2 (gene 6347)
# ASSAY_OVERVIEW: BSK_hDFCGF_MCP1: BioMAP Diversity Plus: hDFCGF Assay for Monocyte Chemoattractant Protein-1 (MCP1) Biomarker Activity (AID 2284285)
# CONDITIONS_USED: primary human foreskin fibroblasts
# Protocol: BSK_hDFCGF is a cell-based, multiplexed-readout assay that uses foreskin fibroblast, a human skin primary cell, with measurements taken at 24 hours after chemical dosing in a 96-well plate.BSK_hDFCGF_MCP1 is an assay component measured in the BSK_hDFCGF assay. […] The levels of cell surface (or secreted, indicated by the prefix "s") biomarker endpoints were measured by ELISA. […] Plates were read after 6 h.
Activity calls are given as the source filed them. Rule for the calls: active = hit-call score of the fitted dose curve at least 0.9, where 1 is the maximum; inactive = score below 0.9.
PARAMETER_MEASURED: outcome

CCOC(=O)C(C#N)=C(c1ccccc1)c1ccccc1 : inactive
CC(CN=Cc1ccccc1O)N=Cc1ccccc1O (centres undefined) : inactive
C=CC(C)(O)CCC=C(C)C (centres undefined) : inactive
O=C(Nc1ccc2c(O)c(N=Nc3ccc(N=Nc4ccc(S(=O)(=O)O)cc4)cc3)c(S(=O)(=O)O)cc2c1)c1ccccc1 : inactive

###

# Read-out: Interleukin-1 alpha (IL1a), IL1A (gene 3552)
# ASSAY_OVERVIEW: BSK_LPS_IL1a: BioMAP Diversity Plus: LPS Assay for Interleukin-1 alpha (IL1a) Biomarker Activity (AID 2283080)
# CONDITIONS_USED: primary human HUVEC with PBMC; actives raise or lower the signal
# Procedure: BSK_LPS is a cell-based, multiplexed-readout assay that uses umbilical vein endothelium and peripheral blood mononuclear cells, a human vascular primary cell co-culture, with measurements taken at 24 hours after chemical dosing in a 96-well plate.BSK_LPS_IL1a is an assay component measured in the BSK_LPS assay. It measures IL-a antibody related to regulation of gene expression using ELISA technology.Data from the assay component BSK_LPS_IL1a was analyzed into 1 assay endpoint. […]
Calls of active or inactive are those of the source. How the source made its calls: active means hit-call score of the fitted dose curve at least 0.9, where 1 is the maximum; inactive means score below 0.9.
Answer with one of the outcomes 1 (yes) (active), 0 (no) (inactive)

Clc1cc(Cl)c(-c2c(Cl)c(Cl)cc(Cl)c2Cl)cc1Cl : 1 (yes)
C=C(C)C(=O)OCC(CC)(COC(=O)C(=C)C)COC(=O)C(=C)C : 0 (no)
CN(C)C(=O)Nc1ccc(Oc2ccc(Cl)cc2)cc1 : 0 (no)

INPUT: GET /call?item= CC(C=O)Cc1ccc(C(C)(C)C)cc1 (configuration not stated) returns the recorded outcome of this test.
OUTPUT: 1 (yes)

INPUT: Short answer needed: outcome of this test for CCCCCCCCCCCCCCCC(=O)OC/C=C(C)/C=C/C=C(C)/C=C/C1=C(C)CCCC1(C)C ?
OUTPUT: 0 (no)

INPUT: Outcome logged for c1ccc2cc(Nc3ccc(Nc4ccc5ccccc5c4)cc3)ccc2c1 in this assay:
OUTPUT: 0 (no)

INPUT: Write down the call the test reported for this molecule. Item: CCCCN(CCCC)C(=O)N(CCCC)CCCC
OUTPUT: 1 (yes)

INPUT: Hi, do you know how CC1(C)CCC[C@]2(C)[C@H]3CCO[C@]3(C)CC[C@@H]12 came out in this test?
OUTPUT: 0 (no)

INPUT: So what was the verdict on O=C1OC[C@H](Cc2cccc(O)c2)[C@H]1Cc1cccc(O)c1 in this test?
OUTPUT: 0 (no)

INPUT: What is the recorded call for this molecule in the test? c1ccc(CCc2ccccc2)cc1
OUTPUT: 1 (yes)

INPUT: Would you mind telling me which call this test gave CC=Cc1ccc(OCC)c(O)c1 ?
OUTPUT: 0 (no)

INPUT: Write down the call the test reported for this molecule. Item: CC(C)(N=C=O)c1cccc(C(C)(C)N=C=O)c1
OUTPUT: 0 (no)

###

# ASSAY_OVERVIEW: ATG_DR4_LXR_CIS: Attagene CIS-FACTORIAL HepG2 Assay for human Liver X Receptor (LXR), DR4 submotif (AID 2282929)
# CONDITIONS_USED: HepG2 Attagene DR4 cis-reporter, mRNA transcription; actives raise or lower the signal
Active and inactive are the calls of the source. How the source made its calls: active means hit-call score of the fitted dose curve at least 0.9, where 1 is the maximum; inactive means score below 0.9.
PARAMETER_MEASURED: AC50

Known AC50 results, listed for orientation:
CC(O)C1CCCCC1 (configuration not stated) : inactive
O=C1OC(=O)c2c(Cl)c(Cl)c(Cl)c(Cl)c21 : inactive
OCCOCCN1CCN(C2=Nc3ccccc3Sc3ccccc32)CC1 : inactive
CCCCCCCCCCCCCC(=O)OCC(O)CO (configuration not stated) : inactive
Cc1c(Cl)cccc1[N+](=O)[O-] : inactive

Below are some compounds; for each one, tell me its AC50.
1. Clc1cc(Cl)c(-c2c(Cl)c(Cl)cc(Cl)c2Cl)cc1Cl
2. N#Cc1ccc(CC(=O)c2cccc(C(F)(F)F)c2)cc1
3. CCCCC(CC)COC(C)=O (configuration not stated)
4. C[C@H]1O[C@@H](O[C@H]2[C@@H](O)C[C@H](O[C@H]3[C@@H](O)C[C@H](O[C@H]4CC[C@@]5(C)[C@H](CC[C@@H]6[C@@H]5C[C@@H](O)[C@]5(C)[C@@H](C7=CC(=O)OC7)CC[C@]65O)C4)O[C@@H]3C)O[C@@H]2C)C[C@H](O)[C@@H]1O

OUTPUT:
1: 21.8 µM (active); 2: inactive; 3: inactive; 4: 0.11 µM (active)

Give AC50 for all compounds that follow.
1. CN(C)CCOC(C)(c1ccccc1)c1ccccn1 (configuration not stated)
2. CCCCCC(C=O)=Cc1ccccc1
3. CS(=O)(=O)OCCCCOS(C)(=O)=O
4. OC[C@H]1O[C@@H](Oc2ccc(O)cc2)[C@H](O)[C@@H](O)[C@@H]1O

OUTPUT:
1. inactive
2. inactive
3. inactive
4. inactive

The following compounds each have a reported value; give each one's AC50.
1. CCCCCCCCc1ccc(S(=O)(=O)O)cc1
2. CCCC(O)C(O)CO (configuration not stated)
3. C1CCOC1
4. CCCC(=O)OCCc1ccccc1
5. COc1cc(CCC(C)=O)ccc1O
6. O=C(CS)OCCOC(=O)CS
7. CCN(CCN)c1cccc(C)c1

OUTPUT:
42.1 µM (active)
inactive
inactive
inactive
inactive
49.1 µM (active)
inactive

// for each compound in input: emit AC50
1. C[C@H]1C[C@@H](O)CC(C)(C)C1
2. COC(CC(C)CCCC(C)(C)O)OC (configuration not stated)
3. CCCCCCOC(=O)C(C)C
4. CCCC[P+](CCCC)(CCCC)CCCC
5. CCCCCCCC(=O)OCC(O)CO (configuration not stated)
6. Cc1cc(CCC(=O)OCCOCCOCCOC(=O)CCc2cc(C)c(O)c(C(C)(C)C)c2)cc(C(C)(C)C)c1O
7. CCCCCCCCCCCCN1CCCCCC1=O

OUTPUT:
1. inactive
2. inactive
3. inactive
4. inactive
5. inactive
6. inactive
7. 18.6 µM (active)
